assay: Antiproliferative activity against human HCC2998 cells assessed as growth inhibition after 48 hrs by sulforhodamine B assay; assay type: functional; conditions: HCC 2998, 48 h, read-out: LC50 (the source's name)
compounds and their reported CC50
Property: CC50

Compound	Measured
CNC(=O)c1cc(Oc2ccc3nc(NC(=O)Nc4ccc(Cl)c(C(F)(F)F)c4)sc3c2)ccn1	> 100 µM
CNC(=O)c1cc(Oc2ccc3nc(NC(=O)c4cc(C(F)(F)F)cc(C(F)(F)F)c4)sc3c2)ccn1	79.4 µM
CNC(=O)c1cc(Oc2ccc(NC(=O)Nc3ccc(Cl)c(C(F)(F)F)c3)cc2)ccn1 [SORAFENIB]	6.31 µM
CNC(=O)c1cc(Oc2ccc3nc(NC(=O)Nc4cc(C(F)(F)F)cc(C(F)(F)F)c4)sc3c2)ccn1	7.85 µM
CNC(=O)c1cc(Oc2ccc3nc(NC(=O)Nc4ccc(Cl)c(Cl)c4)sc3c2)ccn1	> 100 µM
